B1: ZER1 (parent)
chain: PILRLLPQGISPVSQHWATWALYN

Variants of: B1
Measurement protocol: protein stability index of a GFP-peptide fusion (GPS, HEK-293T) (PSI 1-6); higher = more stable;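 further: lentivirally expressed fusions sorted by FACS into six bins by GFP to DsRed ratio, PSI derived from sequencing read proportions per bin multiplied by bin number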
Assay conditions: c terminus: a fixed tail appended
Observable: protein stability index

Consider the following illustrative entries.
{"Mutation notation": "Q15V", "Observable": "protein stability index", "Result value": 3.31}
{"Mutation notation": "N24R", "Observable": "protein stability index", "Result value": 4.17}
{"Mutation notation": "H16E", "Observable": "protein stability index", "Result value": 1.34}
{"Mutation notation": "S11W", "Observable": "protein stability index", "Result value": 1.59}
{"Mutation notation": "W20P", "Observable": "protein stability index", "Result value": 2.79}
{"Mutation notation": "L3W", "Observable": "protein stability index", "Result value": 1.02}
{"Mutation notation": "W20N", "Observable": "protein stability index", "Result value": 2.09}
{"Mutation notation": "A18T", "Observable": "protein stability index", "Result value": 3.18}

Turning now to a further variant:
Value of measured protein stability index for the entry W17F : 3.63
